System: SK-MEL-28 melanoma
experiment: NCI-60 one-dose screen, 48 h (100 = growth as untreated, 0 = no growth, -100 = all killed)
details: 10 µM unless noted
This is part of a sample that, as a whole, favours compounds with a hit. Of some 83,000 tested, about 20% had one in any assay.
Can you tell me growth for the items I'm about to list?
Please reply with the bare figure in % and do not write the unit itself.

Endpoint output: growth of `O=c1[nH]ccc2c(S(=O)(=O)N3CCCNCC3)cccc12` . Value?
67

Endpoint output: growth of `Cc1[nH]n(C(N)=S)c(=O)c1N=Nc1ccc(S(=O)(=O)Nc2ccncn2)cc1` . Value?
98.9

Endpoint output: growth of `COC(=O)Nc1nc2ccc(C(=O)c3ccc(N(C)C4COC4)cc3)cc2[nH]1` . Value?
56.9

Endpoint output: growth of COc1ccc(C2OC(c3cc(-c4cc5ccccc5o4)nn3-c3ccccc3)=NN2C(C)=O)cc1 (stereo not drawn) . Value?
109

Endpoint output: growth of `COC(=O)N[C@@H](C)CNc1nccc(-c2cn(C(C)C)nc2-c2cc(Cl)cc(NS(C)(=O)=O)c2F)n1` . Value?
-0.756

Endpoint output: growth of `CC(C)n1c(NCCc2ccc(O)c(O)c2)nc2c1c(=O)n(C)c(=O)n2C` . Value?
102

Endpoint output: growth of `Cn1cc(-c2ncnc3ccc(-c4cnc(Cl)c(NS(C)(=O)=O)c4)cc23)c2ccccc21` . Value?
0.439

Endpoint output: growth of `CCCNC(=O)c1cn2ncnc(Nc3cc(C(=O)NC4CC4)ccc3C)c2c1C` . Value?
30.1

Endpoint output: growth of `COc1ccc2nc3cc(Cl)ccc3c(Nc3ccc(N(C)C)cc3)c2c1` . Value?
112

Endpoint output: growth of `CC(=O)Oc1ccccc1C(=O)N=C1[Se]CCN1C(=O)c1ccccc1OC(C)=O` . Value?
-27.9

Endpoint output: growth of `Cc1cc(Oc2ccccc2)ccc1Nc1ncnc2ccc(-c3cnc(Cl)c(NS(C)(=O)=O)c3)cc12` . Value?
7.7

Endpoint output: growth of `CCN(CCCOc1ccc2c(Nc3cc(CC(=O)Nc4cccc(F)c4)[nH]n3)ncnc2c1)CCOP(=O)(O)O` . Value?
55.3

Endpoint output: growth of `Cc1ccc(-n2nc(C(C)(C)C)cc2NC(=O)NCc2cc(F)ccc2Oc2ccc3c(cnn3CCO)c2)cc1` . Value?
0.876

====

System: A549/ATCC NSCLC
experiment: NCI-60 one-dose screen, 48 h
details: 10 µM unless noted
Compounds without any hit were thinned out: in the full panel of roughly 83,000, 20% have a hit. Activity calls are given as the source filed them. The calls were made as follows: active = growth percent below 10; inactive = the rest.
Tick one outcome: 1.0 = active, 0.0 = inactive

Please state the recorded outcome for this compound: `CCN(CC)C(=O)C[N+](C)(C)CCOC(c1ccccc1)c1ccccc1`
0.0

Please state the recorded outcome for this compound: `CC(C)(C)c1ccc(Cn2cc(CSc3nc4ccccc4s3)nn2)cc1`
0.0

Please state the recorded outcome for this compound: `Cc1cc(Nc2cc(N3CCN(C)CC3)nc(/C=C/c3ccccc3)n2)n[nH]1`
1.0

Please state the recorded outcome for this compound: CC(=O)c1cnc2ccc(-c3cc(Cl)c(O)c(Cl)c3)nc2c1NC1CCC(CN(C)C)CC1 (centres undefined)
1.0

Please state the recorded outcome for this compound: `Cc1nc2cc(-c3nn(C(C)C)c4ncnc(N)c34)ccc2o1`
1.0

Please state the recorded outcome for this compound: `Clc1ccc2c(NCCNc3nc(N4CCCC4)nc4ccccc34)ccnc2c1`
1.0

Please state the recorded outcome for this compound: `Cc1cc(Nc2ncnc3ccc(NC4=NC(C)(C)CO4)cc23)ccc1Oc1ccn2ncnc2c1`
0.0

Please state the recorded outcome for this compound: `Cc1cc(N2CCOCC2)nc(N(CCNc2ccnc3cc(Cl)ccc23)Cc2cccs2)n1`
0.0

Please state the recorded outcome for this compound: Cc1cccc(C)c1N1C(c2ccccc2)=NNC12C=CC(=O)c1c(O)cccc12 (centres undefined)
0.0
